protocolDetails: Titration of progesterone/steroid content of nanoparticles by HPLC
Assay type: physicochemical
conditionSet: PIBCA/HP CD particles versus PIBCA without HP CD
measureName: Increase in content load (number of times)

Some solved cases for reference:
- molecule: "C#C[C@]1(O)CC[C@H]2[C@@H]3CCC4=Cc5oncc5C[C@]4(C)[C@H]3CC[C@@]21C"
  endpointValue: "32.9 number of times"
- molecule: "CC(=O)S[C@@H]1CC2=CC(=O)CC[C@]2(C)[C@H]2CC[C@@]3(C)[C@@H](CC[C@@]34CCC(=O)O4)[C@H]12"
  endpointValue: "6.9 number of times"
- molecule: "CC(=O)[C@H]1CC[C@H]2[C@@H]3CCC4=CC(=O)CC[C@]4(C)[C@H]3CC[C@]12C"
  endpointValue: "27.7 number of times"
- molecule: "C[C@]12CC[C@H]3[C@@H](CCC4=CC(=O)CC[C@@]43C)[C@@H]1CC[C@@H]2O"
  endpointValue: "8.6 number of times"
- molecule: "CC(=O)O[C@]1(C(C)=O)CC[C@H]2[C@@H]3C=C(C)C4=CC(=O)CC[C@]4(C)[C@H]3CC[C@@]21C [Megestrolacetate, megestrol acetate]"
  endpointValue: "5.6 number of times"
- molecule: "C[C@]12C=CC(=O)C=C1CC[C@@H]1[C@@H]2[C@@H](O)C[C@@]2(C)[C@H]1CC[C@]2(O)C(=O)CO"
  endpointValue: "129.2 number of times"

Query: Would you mind telling me what Increase in content load (number of times) value was observed for C[C@]12CCC(=O)C=C1CC[C@@H]1[C@@H]2[C@@H](O)C[C@@]2(C)[C@H]1CC[C@]2(O)C(=O)CO [Hydrocortisone, hydrocortisone] ?
Response: 7.0 number of times

* * *

protocolDetails: Titration of progesterone/steroid content of nanoparticles by HPLC
Format: physicochemical
conditionSet: reference particles; average of three preparations
Rule: measured Content of PIBCA nanoparticles without HP CD below 3 mmol/g gets 1 (yes); anything equal to or greater than 3 mmol/g gets 0 (no).

Study these solved cases before continuing.
- compound: "C[C@]12CCC(=O)C=C1CC[C@@H]1[C@@H]2[C@@H](O)C[C@@]2(C)[C@H]1CC[C@]2(O)C(=O)CO [Hydrocortisone, hydrocortisone]"
  labelValue: "0 (no)"
- compound: "CC(=O)[C@H]1CC[C@H]2[C@@H]3CCC4=CC(=O)CC[C@]4(C)[C@H]3CC[C@]12C"
  labelValue: "1 (yes)"

Query: Is it true that Content of PIBCA nanoparticles without HP CD reported for CC(=O)S[C@@H]1CC2=CC(=O)CC[C@]2(C)[C@H]2CC[C@@]3(C)[C@@H](CC[C@@]34CCC(=O)O4)[C@H]12 is less than 3 mmol/g?
Response: 0 (no)

Query: Determine whether this compound shows Content of PIBCA nanoparticles without HP CD lower than 3 mmol/g (ties excluded): C[C@]12CC[C@H]3[C@@H](CCC4=CC(=O)CC[C@@]43C)[C@@H]1CC[C@@H]2O
Response: 0 (no)

Query: Find out if reported Content of PIBCA nanoparticles without HP CD for C#C[C@]1(O)CC[C@H]2[C@@H]3CCC4=Cc5oncc5C[C@]4(C)[C@H]3CC[C@@]21C is less than 3 mmol/g
Response: 1 (yes)

Query: Content of PIBCA nanoparticles without HP CD strictly < 3 mmol/g for this compound? CC(=O)O[C@]1(C(C)=O)CC[C@H]2[C@@H]3C=C(C)C4=CC(=O)CC[C@]4(C)[C@H]3CC[C@@]21C [Megestrolacetate, megestrol acetate]
Response: 1 (yes)

Query: hey, is Content of PIBCA nanoparticles without HP CD for C[C@]12C=CC(=O)C=C1CC[C@@H]1[C@@H]2[C@@H](O)C[C@@]2(C)[C@H]1CC[C@]2(O)C(=O)CO lower than 3 mmol/g or not?
Response: 1 (yes)
